Biological target: Tyrosine-protein kinase JAK2 (Homo sapiens) (UniProt O60674)
Sequence (O60674 whole entry): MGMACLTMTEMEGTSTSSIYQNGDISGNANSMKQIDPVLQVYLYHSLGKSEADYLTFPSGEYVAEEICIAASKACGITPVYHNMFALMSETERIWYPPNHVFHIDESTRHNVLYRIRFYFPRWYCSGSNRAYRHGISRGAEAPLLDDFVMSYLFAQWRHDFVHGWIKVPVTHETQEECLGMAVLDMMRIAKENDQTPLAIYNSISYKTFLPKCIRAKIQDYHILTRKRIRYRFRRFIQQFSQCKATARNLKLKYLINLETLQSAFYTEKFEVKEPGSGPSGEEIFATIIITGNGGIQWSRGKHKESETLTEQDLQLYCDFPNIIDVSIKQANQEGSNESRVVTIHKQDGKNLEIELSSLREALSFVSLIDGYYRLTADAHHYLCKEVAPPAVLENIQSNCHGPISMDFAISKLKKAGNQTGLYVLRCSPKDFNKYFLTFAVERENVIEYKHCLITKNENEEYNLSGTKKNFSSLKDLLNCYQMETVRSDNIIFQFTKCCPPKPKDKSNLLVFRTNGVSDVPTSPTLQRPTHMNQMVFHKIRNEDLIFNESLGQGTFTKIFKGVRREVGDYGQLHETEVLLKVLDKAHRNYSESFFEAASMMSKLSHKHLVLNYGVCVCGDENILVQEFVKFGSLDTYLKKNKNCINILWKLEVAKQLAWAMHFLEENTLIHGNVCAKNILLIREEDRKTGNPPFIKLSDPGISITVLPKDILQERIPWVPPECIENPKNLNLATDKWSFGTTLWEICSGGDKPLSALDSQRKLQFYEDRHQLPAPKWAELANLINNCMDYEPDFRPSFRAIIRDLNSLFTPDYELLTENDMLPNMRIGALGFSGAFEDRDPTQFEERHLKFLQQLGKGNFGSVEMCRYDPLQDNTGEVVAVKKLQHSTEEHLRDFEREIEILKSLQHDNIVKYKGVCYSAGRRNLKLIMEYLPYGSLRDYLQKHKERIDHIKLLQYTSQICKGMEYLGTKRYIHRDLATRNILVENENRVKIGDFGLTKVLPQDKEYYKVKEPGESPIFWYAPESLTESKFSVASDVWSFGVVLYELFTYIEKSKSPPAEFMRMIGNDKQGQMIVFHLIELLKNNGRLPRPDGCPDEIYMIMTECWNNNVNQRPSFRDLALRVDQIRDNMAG
Assay: Inhibition of recombinant JAK2 at 20 uM
TEST_READOUT: inhibition (%)
The reply should be a number in %, with the unit left off.

>>> readout_value("COc1cc2ncnc(Nc3nc4c(Cl)cccc4s3)c2cc1OC")
14.4

Please look up its inhibition: N#C/C(=C\c1ccc(O)c(O)c1)C(=O)NCc1ccccc1
55.1

Please look up its inhibition: COc1cc2ncnc(Nc3ccc(Br)cc3)c2cc1OC
29.3

Please look up its inhibition: COc1ccc(CCNc2ncnc3cc(OC)c(OC)cc23)cc1OC
25.3

Please look up its inhibition: COc1cc2ncnc(Nc3ccccc3C)c2cc1OC
10.6

Please look up its inhibition: COc1cc2ncnc(Nc3cccc(O)c3)c2cc1OC
23.8

Please look up its inhibition: COc1cc2ncnc(Nc3ccc(O)cc3)c2cc1OC
33.1

Please look up its inhibition: COc1cc2ncnc(NCCN3CCOCC3)c2cc1OC
29.5

Please look up its inhibition: COc1cccc(Nc2ncnc3cc(OC)c(OC)cc23)c1
29.4

Please look up its inhibition: COc1cc2ncnc(Nc3ccc(C)cc3)c2cc1OC
18.4

Please look up its inhibition: COCCNc1ncnc2cc(OC)c(OC)cc12
38

Please look up its inhibition: COc1cc2ncnc(NN3CCOCC3)c2cc1OC
44.4

Please look up its inhibition: COc1cc2ncnc(Nc3cccc4ccccc34)c2cc1OC
43
